Experiment: Acute oral toxicity
Conditions: rat, in vivo, rats
Readout Type: LD50

Return reported LD50; argument: O=Cc1cc(Cl)c(O)c(Cl)c1 [DCHB, 3,5-Dichloro-4-hydroxybenzaldehyde]
> 5000 mg/kg

Value source: patent EP0193257A1
